Hey, just so you know, these numbers are from ChEMBL document CHEMBL5506027.

Values of pIC50 reported for UniProt:Q13464 appear below.
Sequence (Q13464 whole entry): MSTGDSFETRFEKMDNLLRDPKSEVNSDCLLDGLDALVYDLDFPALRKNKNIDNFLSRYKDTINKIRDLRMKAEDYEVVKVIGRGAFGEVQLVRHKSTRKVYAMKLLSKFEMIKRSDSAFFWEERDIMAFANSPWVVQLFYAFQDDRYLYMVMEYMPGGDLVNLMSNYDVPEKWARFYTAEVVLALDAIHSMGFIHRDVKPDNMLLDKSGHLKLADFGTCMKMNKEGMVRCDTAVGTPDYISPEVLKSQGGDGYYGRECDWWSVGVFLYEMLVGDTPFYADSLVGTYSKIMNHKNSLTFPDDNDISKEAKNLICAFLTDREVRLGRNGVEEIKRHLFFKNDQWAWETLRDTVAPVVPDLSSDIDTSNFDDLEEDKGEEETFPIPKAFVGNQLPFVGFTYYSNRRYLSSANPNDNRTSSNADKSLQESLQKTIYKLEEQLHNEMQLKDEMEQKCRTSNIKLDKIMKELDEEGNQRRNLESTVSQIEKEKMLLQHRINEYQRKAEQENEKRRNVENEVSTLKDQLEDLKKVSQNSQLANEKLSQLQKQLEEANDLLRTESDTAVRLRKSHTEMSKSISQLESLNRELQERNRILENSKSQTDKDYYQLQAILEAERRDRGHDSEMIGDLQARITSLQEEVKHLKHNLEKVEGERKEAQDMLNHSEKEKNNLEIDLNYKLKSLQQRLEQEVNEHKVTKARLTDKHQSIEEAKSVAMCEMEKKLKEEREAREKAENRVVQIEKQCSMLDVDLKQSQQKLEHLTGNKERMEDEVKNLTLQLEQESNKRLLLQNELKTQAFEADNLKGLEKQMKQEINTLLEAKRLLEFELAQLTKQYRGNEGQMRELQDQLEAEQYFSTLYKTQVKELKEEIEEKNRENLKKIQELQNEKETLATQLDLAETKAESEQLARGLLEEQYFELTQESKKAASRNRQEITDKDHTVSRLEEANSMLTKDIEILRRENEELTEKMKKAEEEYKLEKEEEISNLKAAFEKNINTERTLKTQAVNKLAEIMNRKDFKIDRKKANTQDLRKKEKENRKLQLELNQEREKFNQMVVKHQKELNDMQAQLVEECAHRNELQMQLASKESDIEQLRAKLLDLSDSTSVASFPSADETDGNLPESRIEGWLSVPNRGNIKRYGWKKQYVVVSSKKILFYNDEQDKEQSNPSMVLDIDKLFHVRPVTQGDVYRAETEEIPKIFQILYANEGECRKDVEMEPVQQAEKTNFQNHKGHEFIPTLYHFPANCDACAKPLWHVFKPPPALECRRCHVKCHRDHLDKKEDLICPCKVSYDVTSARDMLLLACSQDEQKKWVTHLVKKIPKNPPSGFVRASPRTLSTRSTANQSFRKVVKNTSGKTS
pIC50 is defined as minus the log10 of a concentration measured in mol/L.

# COMPOUND, TARGET SYSTEM, pIC50
rows = [
    ("Cc1c(Br)c(Br)c2c3c1nc(N1CCNCC1)n3CCC2 [SEL-120 FREE BASE]", "UniProt:Q13464", 6.14),
]

Proceed to the following item.
Supply measured pIC50 of FC(F)c1c(Br)c(Br)cc2c1nc(N1CCNCC1)n2C1CCOCC1 in your reply.
6.45

###

This section presents molecules with their documented IC50 values.
System: MV4-11
TEST PROTOCOL: Antiproliferative activity against human MV4-11 cells incubated for 5 days by CellTiter-Glo luminescent cell viability assay
Assay type: functional, cell-based
SETTINGS: MV4-11, 120 h
The answer should read as a number with its unit following.

Worked set:
# SMILES CODE, IC50
records = [
    ("CN1CCN(c2nc3c(C(F)F)c(Br)c(Br)cc3n2C2CCOCC2)CC1", "152 nM"),
    ("Cc1c(Br)c(Br)cc2c1nc(N1CCNCC1)n2[C@H]1CC[C@H](O)CC1", "146 nM"),
]

Proceed to the following item.
Identify IC50 associated with the molecule C#Cc1c(Br)c(Br)cc2c1nc(N1CCNCC1)n2C1CCOCC1
72.5 nM
